# Tested on: J774.1
# assay protocol: Inhibition of nitric oxide production in LPS induced mouse J774.1 cells
# Type: functional, cell-based
assay metric: IC50 (µM)

compound: CNC(=N)NCCC[C@H](N)C(=O)O
reported measurement: 31.6

I = COC1=CC(O)(C/C=C/c2ccccc2)C(OC)=CC1=O (stereo not drawn)
II = C=C[C@H](C1=CC(=O)C(OC)=CC1=O)c1ccccc1
Of the two listed items, which has the higher IC50? First: I Second: II Could you answer with the label of the item you picked?
II

* * *

# System: J774.1
# assay protocol: Inhibition of nitric oxide production in LPS induced mouse J774.1 cells
# Type: functional, cell-based
assay metric: IC50 (µM)

molecule: C=C[C@H](C1=CC(=O)C=CC1=O)c1ccccc1
assay metric: IC50
reported measurement: 39.7

P = C=C[C@@H](c1ccccc1)c1cc(O)ccc1O
Q = COc1ccc(C(=O)/C=C/c2ccccc2)c(O)c1
R = C=C[C@H](C1=CC(=O)C(OC)=CC1=O)c1ccc(O)cc1
S = C=CC(c1ccccc1)C1(O)C(=O)C=C(OC)C(=O)C1O (stereo not given)
Descending sort on IC50 required. Submit the labels in the order that the ranking request calls for.
P, R, Q, S
